Molecular target: Tyrosyl-tRNA synthetase, putative (Trypanosoma cruzi (strain CL Brener))
Sequence (whole entry): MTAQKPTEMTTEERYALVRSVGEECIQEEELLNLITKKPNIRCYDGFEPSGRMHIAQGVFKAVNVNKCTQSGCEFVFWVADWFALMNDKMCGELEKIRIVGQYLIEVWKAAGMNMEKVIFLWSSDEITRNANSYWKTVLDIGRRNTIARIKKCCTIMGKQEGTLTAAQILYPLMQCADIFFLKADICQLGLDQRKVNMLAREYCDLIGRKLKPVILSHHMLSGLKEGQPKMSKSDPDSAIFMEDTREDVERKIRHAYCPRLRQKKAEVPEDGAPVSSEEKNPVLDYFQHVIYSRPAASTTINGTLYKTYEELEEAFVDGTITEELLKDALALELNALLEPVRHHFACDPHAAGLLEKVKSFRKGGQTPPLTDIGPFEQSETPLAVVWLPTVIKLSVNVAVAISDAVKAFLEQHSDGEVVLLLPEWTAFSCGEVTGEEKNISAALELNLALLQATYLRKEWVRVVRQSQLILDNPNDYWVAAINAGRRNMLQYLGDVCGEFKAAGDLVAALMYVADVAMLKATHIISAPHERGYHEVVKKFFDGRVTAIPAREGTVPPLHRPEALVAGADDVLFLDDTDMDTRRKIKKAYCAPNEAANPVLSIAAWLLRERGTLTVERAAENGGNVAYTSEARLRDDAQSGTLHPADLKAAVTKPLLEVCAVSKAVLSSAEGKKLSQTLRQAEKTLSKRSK
Test: Trypanosoma cruzi tyrosyl tRNA synthetase (TcYRS) _High Tyrosine SOP
Type: functional
Parameters: scale not given: in the data most compounds retested in dose-response had high values
Conditions: 30 µM
Provide the reported Percent Effect of each item.
One number for each entry, in %.

The examples below pair each entry with its known result.
{"columns": ["MOLECULE", "SYSTEM_NAME", "MEASUREMENT_UNIT", "OBSERVED"],
 "data": [
  ["Cc1nc(CN2CCCCC2Cn2cncn2)nc2ccccc12 (centres undefined)", "Tyrosyl-tRNA synthetase, putative (Trypanosoma cruzi (strain CL Brener))", "%", 10.5],
  ["COc1cc(CCC(=O)NCC2CCCN2C)ccc1OCC(F)(F)F (centres undefined)", "Tyrosyl-tRNA synthetase, putative (Trypanosoma cruzi (strain CL Brener))", "%", 5.42]
]}

Please state, for each entry, its recorded Percent Effect.
1. CCOCCCn1c(NC(=O)c2cnn(C)c2)nc2ccccc21
2. CCOCc1cccc(S(=O)(=O)N2CCSCC2)c1
3. COc1ccc2nnc(CCCC(=O)NCCC3=CCCCC3)n2n1
4. CN(C(=O)c1cccc2[nH]ncc12)C1CCN(c2ccccn2)CC1
5. CN1CC(=O)N(c2cccnc2)CC12CCN(C(=O)c1cccnc1)C2 (centres undefined)
6. CCCNC(=O)CNc1cc(C#N)ccc1OCC
7. CCOCC(=O)N1C[C@@H]2COC[C@H](c3nc(C)no3)[C@@H]2C1

1: 6.8; 2: 4.23; 3: 7.41; 4: 0.952; 5: 6.25; 6: 4.43; 7: -15.8

Please state, for each entry, its recorded Percent Effect.
1. Cc1cc(C[C@@H]2CCC[C@H]2NCc2ccccc2C(F)(F)F)on1
2. CCOc1ccc(Cl)c(C(=O)N2CCN(CCO)CC2)n1
3. COc1ccc(C(=O)N(Cc2cnn(C)c2)C(C)C)cc1Br
4. O=C(c1cccnc1)N1CCCC(c2cc(C(F)F)n3ncnc3n2)C1 (centres undefined)
5. CCCn1ccc(C(=O)N2CCC(C)CC2)n1
6. Cc1nc(C)n(CC2CCCN(CC(=O)Nc3c(C)n[nH]c3C)C2)n1 (centres undefined)

1: 2.15; 2: 4.85; 3: 2.46; 4: 0; 5: 8.6; 6: 5.39

Please state, for each entry, its recorded Percent Effect.
1. c1nc2c(c(-c3ccsc3)n1)CCN(Cc1ccoc1)CC2
2. Cc1nc(C(=O)N2CCCC(n3cncn3)C2)cs1 (centres undefined)
3. CC(C)c1nc(C(=O)N2CCOCC2CC(=O)c2ccco2)c[nH]1 (centres undefined)
4. COc1ccc(C(=O)Nc2cnn(CC(=O)NC3CCCC3)c2)c(O)c1
5. CNc1cncc(C2CCCN(S(C)(=O)=O)C2)n1 (centres undefined)

[-6.93, -38.5, 5.32, 11.5, 1.07]

Please state, for each entry, its recorded Percent Effect.
1. CNc1nc(C(=O)N2CCCC(c3nccn3CC3CCC3)C2)cs1 (centres undefined)
2. CCc1ncncc1C(=O)N1CCOC(c2nc(C)n[nH]2)C1 (centres undefined)
3. COC(=O)c1sccc1S(=O)(=O)N1CCC(Oc2ncccc2Cl)CC1
4. Cc1cnc(C(=O)N2CCCN(Cc3csc(C)n3)CC2)cn1

1: 6.45; 2: 1.04; 3: -19.4; 4: 5.21

Attribution: ChEMBL document CHEMBL3988442
